# protocol details: Reaction of BRAP with H2O2 monitored by 1H NMR in D2O
# Format: physicochemical
# test context: D2O containing H2O2; equimolar concentration of H2O2 (1 mM); read-out: half-life of hydrolysis
experimental readout: half-life at 1 mM

smiles=CC1(CO)COB(c2ccc(CO)cc2)OC1 observed="~5 min"
